The reported measurements were obtained from paper PMC12799587.

I'd be grateful if you could share measured Log ratio of affinities for these entries.
# system_tested: β1-AR (Homo sapiens)
# test_method_notes: CRE-luciferase production in CHO-β1-CRE-luciferase cells
# experimental_parameters: catecholamine vs secondary conformation, CHO-β1-CRE-luciferase cells
Give the value as a plain number.

Ask: I have this molecule here, CC(C)(C)NC[C@@H](O)COc1ccccc1C#N , and I need its recorded Log ratio of affinities.
Reply: 2.81

Ask: I have this molecule here, O[C@H](CNCCc1c[nH]c2ccccc12)COc1ccc(F)cc1 , and I need its recorded Log ratio of affinities.
Reply: 1.64

Ask: I have this molecule here, Cc1cc2c(OC[C@@H](O)CNC(C)(C)C)cccc2[nH]1 , and I need its recorded Log ratio of affinities.
Reply: 3.55

* * *

# system_tested: β1-AR (Homo sapiens)
# test_method_notes: CRE-luciferase production in CHO-β1-CRE-luciferase cells
# experimental_parameters: EC501 (log EC50 of first component), biphasic concentration response, CHO-β1-CRE-luciferase cells
parameter_measured: pEC50
Please note pEC50 is a logarithmic value: minus log10 of concentration in mol/L. Answer with that number alone.

Ask: I have this compound here, CC(C)(Cc1c[nH]c2ccccc12)NCC(O)COc1ccccc1C#N (stereo not shown) [Bucindolol, reference compound] , and I need its recorded pEC50.
Reply: 9.27

* * *

# system_tested: β1-AR (Homo sapiens, UniProt P08588)
# Sequence (P08588 whole entry): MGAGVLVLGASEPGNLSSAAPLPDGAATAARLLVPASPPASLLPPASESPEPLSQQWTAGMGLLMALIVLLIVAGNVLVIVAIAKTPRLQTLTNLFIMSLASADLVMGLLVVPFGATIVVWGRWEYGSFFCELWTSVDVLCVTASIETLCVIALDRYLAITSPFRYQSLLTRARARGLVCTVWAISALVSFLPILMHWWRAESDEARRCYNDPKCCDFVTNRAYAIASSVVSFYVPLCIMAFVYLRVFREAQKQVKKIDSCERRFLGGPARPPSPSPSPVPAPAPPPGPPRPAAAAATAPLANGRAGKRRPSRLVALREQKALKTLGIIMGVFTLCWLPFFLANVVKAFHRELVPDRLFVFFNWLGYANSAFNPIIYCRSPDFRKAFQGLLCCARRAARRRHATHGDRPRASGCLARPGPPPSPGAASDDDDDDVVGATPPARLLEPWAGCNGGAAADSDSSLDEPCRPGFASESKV
# test_method_notes: CRE-luciferase production in CHO-β1-CRE-luciferase cells
# experimental_parameters: Log EC50, agonist action, CHO-β1-CRE-luciferase cells; given as log EC50 (negative)
parameter_measured: log10(EC50) (log10 of the value in nM)
Note the log scale: values are log10 of EC50 expressed in nM.

Ask: I have this compound here, O[C@H](CNCCc1c[nH]c2ccccc12)COc1ccc(F)cc1 , and I need its recorded log10(EC50).
Reply: 2.19

Ask: I have this compound here, COc1ccc(OCC(O)CNCCc2c[nH]c3ccccc23)cc1 (centres unmarked) , and I need its recorded log10(EC50).
Reply: 3.15

Ask: I have this compound here, CC(C)(C)NC[C@@H](O)COc1ccccc1C#N , and I need its recorded log10(EC50).
Reply: 2.11

Ask: I have this compound here, Cc1cc2c(OC[C@@H](O)CNC(C)(C)C)cccc2[nH]1 , and I need its recorded log10(EC50).
Reply: 2.22

Ask: I have this compound here, COc1ccccc1OC[C@@H](O)CNC(C)C , and I need its recorded log10(EC50).
Reply: 1.81

* * *

# system_tested: UniProt:P08588
# test_method_notes: CRE-SPAP production in CHO-β1-CRE-SPAP cells
# Type: cell-based
# Design: expressed in transfected cells; host or cells: CHO-K1 clonal lines (CHO-β1-CRE-luc, CHO-β1-CRE-SPAP)
# experimental_parameters: response compared with 10 μM isoprenaline, CHO-β1-CRE-SPAP cells
I'd be grateful if you could share measured % Isoprenaline for these entries.
Form entry: value (%) — number only.

Ask: I have this compound here, CC(C)(C)NC[C@@H](O)COc1ccccc1C#N , and I need its recorded % Isoprenaline.
Reply: 80.1

Ask: I have this compound here, COc1ccccc1OC[C@@H](O)CNC(C)C , and I need its recorded % Isoprenaline.
Reply: 62.3

Ask: I have this compound here, COc1ccc(OCC(O)CNCCc2c[nH]c3ccccc23)cc1 (centres unmarked) , and I need its recorded % Isoprenaline.
Reply: 53.6

Ask: I have this compound here, C=CCc1ccccc1OCC(O)CNC(C)C (racemic) [Alprenolol, reference compound] , and I need its recorded % Isoprenaline.
Reply: 56.7

Ask: I have this compound here, CC(C)(Cc1c[nH]c2ccccc12)NCC(O)COc1ccccc1C#N (centres unmarked) [Bucindolol, reference compound] , and I need its recorded % Isoprenaline.
Reply: 84.5

* * *

# system_tested: β1-AR (Homo sapiens, UniProt P08588)
# test_method_notes: Summary of pharmacological outcome at the β1-AR (CHO-β1-luciferase or CHO-β1-SPAP cells)
# experimental_parameters: evidence A–D as outlined in the Introduction; CHO-β1-luciferase or CHO-β1-SPAP cells
parameter_measured: Evidence of SCE activation

See these solved cases before continuing.
>>> df
                                   compound          parameter_measured  obs_value
0  OCCOc1ccc(CNCCc2c[nH]c3ccccc23)cc1 [VL11]  Evidence of SCE activation       None
1  Cc1cc2c(OC[C@@H](O)CNC(C)(C)C)cccc2[nH]1 [VL01]  Evidence of SCE activation       ABCD
2   CC(C)(C)NC[C@@H](O)COc1ccccc1C#N [VL09]  Evidence of SCE activation       ABCD
3              C=CCc1ccccc1OCCNCCCOC [VL12]  Evidence of SCE activation       None

Ask: I have this compound here, CC(C)(C)NC[C@H](O)COc1cccc2c1CCCC2=O [VL03] , and I need its recorded Evidence of SCE activation.
Reply: None

Ask: I have this compound here, COc1ccccc1OC[C@@H](O)CNC(C)C [VL05] , and I need its recorded Evidence of SCE activation.
Reply: None

Ask: I have this compound here, Cc1cc(C)c(OC[C@@H](O)CNC(C)C)c(C)c1 [VL08] , and I need its recorded Evidence of SCE activation.
Reply: None

Ask: I have this compound here, Cc1ccc(OCC(O)CNC(C)C)cc1 (stereo not shown) [VL13] , and I need its recorded Evidence of SCE activation.
Reply: None

Ask: I have this compound here, O[C@H](CNCCc1c[nH]c2ccccc12)COc1ccc(F)cc1 [VL10] , and I need its recorded Evidence of SCE activation.
Reply: None

Ask: I have this compound here, COc1ccc(OCC(O)CNCCc2c[nH]c3ccccc23)cc1 (stereo not shown) [VL06] , and I need its recorded Evidence of SCE activation.
Reply: None

* * *

I'd be grateful if you could share measured log10 of Kd for these entries.
# system_tested: UniProt:P07550
# Sequence (P07550 whole entry): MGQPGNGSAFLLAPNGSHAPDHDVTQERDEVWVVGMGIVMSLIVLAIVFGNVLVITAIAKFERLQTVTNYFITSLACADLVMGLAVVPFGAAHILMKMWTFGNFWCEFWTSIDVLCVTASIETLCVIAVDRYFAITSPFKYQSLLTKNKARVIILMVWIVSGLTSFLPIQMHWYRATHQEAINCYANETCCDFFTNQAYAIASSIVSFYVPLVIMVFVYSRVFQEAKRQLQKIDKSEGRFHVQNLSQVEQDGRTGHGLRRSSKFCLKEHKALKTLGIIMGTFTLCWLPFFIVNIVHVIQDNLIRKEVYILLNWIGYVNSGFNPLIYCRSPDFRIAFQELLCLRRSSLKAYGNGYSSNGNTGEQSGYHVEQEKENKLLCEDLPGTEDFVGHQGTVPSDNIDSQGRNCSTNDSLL
# test_method_notes: CRE-SPAP production in CHO-β2-CRE-SPAP cells
# Type: cell-based
# Parameters: expressed in transfected cells; host or cells: CHO-K1 clonal line (CHO-β2-CRE-SPAP)
# experimental_parameters: Log KD (Cimaterol as Agonist), rightward shift of cimaterol response, Gaddum, or Stephenson (a)
Note the log scale: values are log10 of Kd expressed in nM.

Ask: Which log10 of Kd is reported with UniProt:P07550 for this entry: O[C@H](CNCCc1c[nH]c2ccccc12)COc1ccc(F)cc1 ?
Reply: 1.57

Ask: Which log10 of Kd is reported with UniProt:P07550 for this entry: CC(C)(C)NC[C@@H](O)COc1ccccc1C#N ?
Reply: -0.36

Ask: Which log10 of Kd is reported with UniProt:P07550 for this entry: C=CCc1ccccc1OCCNCCCOC ?
Reply: 3.57

Ask: Which log10 of Kd is reported with UniProt:P07550 for this entry: CC(C)(C)NC[C@H](O)COc1cccc2c1CCCC2=O ?
Reply: -1.33

Ask: Which log10 of Kd is reported with UniProt:P07550 for this entry: Cc1cc2c(OC[C@@H](O)CNC(C)(C)C)cccc2[nH]1 ?
Reply: -2.08

Ask: Which log10 of Kd is reported with UniProt:P07550 for this entry: Cc1cc(C)c(OC[C@@H](O)CNC(C)C)c(C)c1 ?
Reply: 3.32

Ask: Which log10 of Kd is reported with UniProt:P07550 for this entry: COc1ccc(OCC(O)CNCCc2c[nH]c3ccccc23)cc1 (stereo not shown) ?
Reply: 2.66
